- experimentalSystem: UPR counterscreen luciferase reporter, luminescence
- experiment: luciferase reporter activation, UPR counterscreen line – cell-based, luminescence, counter-screen for adaptive UPR activator project, dose response (AID 489027)
The source made the active and inactive calls. How the calls were made is not given here.
measurementType: EC50

compound | measurementType | recordedResult
COc1ccc(-c2nc3scc(-c4ccc(OC)c(OC)c4)c3c(=O)o2)cc1 | EC50 | > 80 µM (inactive)

Please turn your attention to the following entry.
Record Cc1cccc(N2CCN(C(=S)Nc3ccc4nc(N5CCN(C)CC5)cc(C)c4c3)CC2C)c1 (stereo not drawn) / UPR counterscreen luciferase reporter, luminescence, EC50 recorded as > 80 µM (inactive)

* * *

- experimentalSystem: UPR counterscreen luciferase reporter, luminescence
- experiment: luciferase reporter activation, UPR counterscreen line – cell-based, luminescence, counter-screen for adaptive UPR activator project, dose response (AID 489027)
Activity calls are given as the source filed them. The rule behind the calls is not given here.
Select the matching outcome among true (1) (active), false (0) (inactive)

See these solved cases before continuing.
compound | groupLabel
C=CCn1c(O)c(C2=c3ccccc3=NC2=O)sc1=Nc1ccc(O)cc1 | true (1)
O=C(Nc1ccc([N+](=O)[O-])cc1)C(Cc1ccccc1)N1C(=O)c2cccc3cccc(c23)C1=O (configuration not stated) | false (0)
O=C(NN1C(=O)/C(=C/c2ccc(O)c(O)c2)SC1=S)c1ccccc1 | true (1)
CN(C)CCCN(C(=O)c1ccc(S(=O)(=O)N2CCCCCC2)cc1)c1nc2ccc(Br)cc2s1 | true (1)
O=C(Cn1c2ccccc2c(=O)c2cc([N+](=O)[O-])ccc21)Nc1ccccc1Cl | false (0)
C=C(C)[C@@]12OC3(c4ccccc4)O[C@@H]1C1[C@@H]4O[C@]4(CO)[C@@H](O)[C@]4(O)C(=O)C(C)=C[C@H]4[C@@]1(O3)[C@H](C)[C@H]2OC(=O)/C=C/C=C/c1ccccc1 (some centres not stated) | false (0)

So what was the verdict on CC(NCC(O)COCCC12CC3CC(CC(C3)C1)C2)c1ccccc1 (configuration not stated) in this test?
false (0)

So what was the verdict on O=C(N/N=C/c1ccc(Cl)cc1)c1sccc1OCc1ccc(F)cc1 in this test?
false (0)

So what was the verdict on COc1ccc(S(=O)(=O)N2c3cc(Cl)ccc3Oc3nc4ccccc4nc32)cc1 in this test?
false (0)

So what was the verdict on CCOC(=O)c1ccc(-c2ccc(/C=N/NC(=O)CN(c3cccc(C)c3)S(C)(=O)=O)o2)cc1 in this test?
true (1)

So what was the verdict on COc1ccc(-c2cc(-c3ccccc3)c(C#N)c(S(C)(=O)=O)n2)cc1 in this test?
true (1)

So what was the verdict on CCOc1ccccc1NC(=O)Cn1c(=O)n(-c2ccccc2)c(=O)c2oc3ccccc3c21 in this test?
false (0)

So what was the verdict on CCOC(=O)C1=C(C)n2c(s/c(=C/c3cccc([N+](=O)[O-])c3)c2=O)=NC1c1ccc(O)c(OC)c1 (configuration not stated) in this test?
false (0)

So what was the verdict on Cc1cc(-n2c(SCC(=O)Nc3ccc(F)c(F)c3)nc3n[nH]c(C)c3c2=N)ccc1Cl in this test?
false (0)

So what was the verdict on N#Cc1c(-c2ccc3c(c2)OCO3)ccn2nc(-c3cccc(C(F)(F)F)c3)nc12 in this test?
false (0)

So what was the verdict on COc1ccc(NC(=O)c2sc3nc(N4CCOCC4)c4c(c3c2N)CC(C)(C)OC4)c(OC)c1 in this test?
true (1)

So what was the verdict on Cc1ccc(Cc2cnc(NC(=O)/C(C#N)=C/c3ccc(-c4ccc([N+](=O)[O-])cc4)o3)s2)cc1 in this test?
true (1)

So what was the verdict on Oc1cc(-c2cccnc2)cc2cccnc12 in this test?
false (0)

So what was the verdict on O=C1NC(=O)N(Cc2ccccc2Cl)C(=O)/C1=C/c1cccs1 in this test?
true (1)

So what was the verdict on COc1ccc(C(=O)Nc2cccc(/C=C/c3nc4ccccc4c(=O)[nH]3)c2)cc1 in this test?
false (0)

So what was the verdict on CCC[C@@H](CN[C@@H](CNC)[C@H](C)CC)NCC1CCC(C(C)(C)C)CC1 (some centres not stated) in this test?
true (1)

So what was the verdict on CCOC(=O)c1c(NC(=O)c2cc3n(n2)C(C(F)(F)F)CC(c2cccs2)N3)sc(C)c1C (configuration not stated) in this test?
true (1)
